Molecular target: EGFR V3 (EGFR-Viii) (Homo sapiens, UniProt P00533, DELINS30-297G)
Construct: expressed in transfected cells; host or cells: BaF3 (murine pro-B), retroviral pMXs-IRES-Blasticidin, selected for IL-3 independence
Sequence (P00533 with tags, fused parts or gaps DELINS30-297G): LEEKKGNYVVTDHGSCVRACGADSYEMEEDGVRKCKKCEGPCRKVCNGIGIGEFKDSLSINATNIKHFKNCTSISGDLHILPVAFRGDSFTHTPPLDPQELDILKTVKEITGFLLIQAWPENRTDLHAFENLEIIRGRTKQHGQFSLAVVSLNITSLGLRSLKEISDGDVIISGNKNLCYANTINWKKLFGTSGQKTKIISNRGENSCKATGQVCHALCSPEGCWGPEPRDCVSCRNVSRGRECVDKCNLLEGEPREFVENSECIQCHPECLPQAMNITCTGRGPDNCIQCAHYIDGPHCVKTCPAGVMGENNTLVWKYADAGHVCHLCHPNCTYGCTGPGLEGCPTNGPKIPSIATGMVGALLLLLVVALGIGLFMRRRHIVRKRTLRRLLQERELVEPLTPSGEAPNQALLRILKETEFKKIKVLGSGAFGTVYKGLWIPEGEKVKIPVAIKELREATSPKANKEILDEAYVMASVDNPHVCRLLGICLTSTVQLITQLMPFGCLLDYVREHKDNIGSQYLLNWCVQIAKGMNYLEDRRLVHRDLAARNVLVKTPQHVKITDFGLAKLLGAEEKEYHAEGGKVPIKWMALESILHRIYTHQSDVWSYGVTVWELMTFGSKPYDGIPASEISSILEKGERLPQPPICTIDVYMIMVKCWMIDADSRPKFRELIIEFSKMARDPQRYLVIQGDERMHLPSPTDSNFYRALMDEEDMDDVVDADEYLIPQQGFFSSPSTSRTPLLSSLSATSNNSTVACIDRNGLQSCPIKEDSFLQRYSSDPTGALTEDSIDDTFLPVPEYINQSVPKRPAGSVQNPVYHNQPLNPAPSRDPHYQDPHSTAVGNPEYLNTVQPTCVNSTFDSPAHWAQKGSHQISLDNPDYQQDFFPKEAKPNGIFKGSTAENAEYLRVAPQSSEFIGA
Assay: Assay for cell proliferation (BaF3 transformants, CellTiterGlo), Activity for Inhibiting EGFR
Type: cell-based
Details: Table A, potency code; 3 days drug
pIC50: −log10 of the molar value.
quantity: pIC50

For orientation, consider the following solved cases.
INSERT INTO results (compound, tested_on, quantity, result) VALUES
  ('C=CC(=O)Nc1cc2c(Nc3ccc4c(cnn4Cc4cccc(F)c4)c3)ncnc2cc1OCCN1CCCCC1 [compound 8]', 'EGFR V3 (EGFR-Viii) (Homo sapiens, UniProt P00533, DELINS30-297G)', 'pIC50', '7.52 to 7.70'),
  ('C=CC(=O)Nc1cc2c(Nc3ccc4c(cnn4Cc4cccc(F)c4)c3)ncnc2cc1OCCN1CCOCC1 [compound 3]', 'EGFR V3 (EGFR-Viii) (Homo sapiens, UniProt P00533, DELINS30-297G)', 'pIC50', '7.70 to 8.00'),
  ('C=CC(=O)Nc1cc2c(Nc3ccc4c(cnn4Cc4cccc(F)c4)c3)ncnc2cc1N(C)CCN(C)C [compound 1]', 'EGFR V3 (EGFR-Viii) (Homo sapiens, UniProt P00533, DELINS30-297G)', 'pIC50', '7.00 to 7.30');

Proceeding to the next compound to report its pIC50.
Q: State the recorded pIC50 for this entry: C=CC(=O)Nc1cc2c(Nc3ccc4c(cnn4Cc4cccc(F)c4)c3)ncnc2cc1N(C)CCN1CCOCC1 [compound 2]
A: 7.30 to 7.52
